# maps each entry to its ED
Species: Rattus norvegicus
Assay Overview: Antagonist activity expressed as the effective dose that reduces the response to 2x units to equal response to 1x units of agonist (vasopressor assay)
Format: functional
*1 amine or outer side, *2 acyl side, *3 side chain or, on linkers, in order; H or OH if unused. Where a SMILES comes first, the peptide text is derived from it. Bridges are numbered along the chain shown (N, C = ends). X4 = O=C(CC1(S[*:2])CCC(c2ccccc2)CC1)[*:1]; X2 = CC1CCC(CC(=O)[*:1])(S[*:2])CC1
Please state the figure in nmol/kg; there is no need to write the unit.

Here is how some compounds turned out for ED.
# Compound, ED [nmol/kg]
records = [
    ("CC1CCC2(CC1)CC(=O)N[C@@H](Cc1ccc(O)cc1)C(=O)N[C@@H](Cc1ccccc1)C(=O)N[C@@H](CCC(N)=O)C(=O)N[C@@H](CC(N)=O)C(=O)N[C@H](C(=O)N1CCC[C@H]1C(=O)N[C@@H](CCCN=C(N)N)C(=O)NCC(N)=O)CSS2 (stereo partly drawn) (YFQNCPRG-NH2; linker N-5 via X2)", 1.04),
    ("COc1ccc(C[C@@H]2NC(=O)CC3(CCC(C)CC3)SSC[C@@H](C(=O)N3CCC[C@H]3C(=O)N[C@@H](CCCN=C(N)N)C(=O)NCC(N)=O)NC(=O)[C@H](CC(N)=O)NC(=O)[C@H](CCC(N)=O)NC(=O)[C@H](Cc3ccccc3)NC2=O)cc1 (stereo partly drawn) (Y(Me)FQNCPRG-NH2; linker N-5 via X2)", 1.5),
]

We next turn to a different compound, shown below.
Lookup result for NC(=O)CC[C@@H]1NC(=O)[C@H](Cc2ccccc2)NC(=O)[C@H](Cc2ccc(O)cc2)NC(=O)CC2(CCC(c3ccccc3)CC2)SSC[C@@H](C(=O)N2CCC[C@H]2C(=O)N[C@@H](CCCN=C(N)N)C(=O)NCC(N)=O)NC(=O)[C@H](CC(N)=O)NC1=O (stereo partly drawn) (YFQNCPRG-NH2; linker N-5 via X4) ; measured ED: 2
